- Read-out: Decorin, DCN (gene 1634)
- experimentalProtocol: BSK_MyoF_Decorin: BioMAP Diversity Plus: MyoF Assay for Decorin Biomarker Activity (AID 2284265)
- testContext: primary human lung fibroblasts
Activity calls are given as the source filed them. The calls were made as follows: active = hit-call score of the fitted dose curve at least 0.9, where 1 is the maximum; inactive = score below 0.9.
Labels: 1 (active), 0 (inactive)

molecule=O=C(CC(=O)C(F)(F)C(F)(F)C(F)(F)F)c1cccs1 labelvalue=0
molecule=CN(CCO)S(=O)(=O)C(F)(F)C(F)(F)C(F)(F)C(F)(F)C(F)(F)C(F)(F)C(F)(F)C(F)(F)F labelvalue=0
molecule=COC1=CC(=O)C[C@@H](C)[C@]12Oc1c(Cl)c(OC)cc(OC)c1C2=O labelvalue=0
molecule="C=CC(C)(CCC=C(C)C)OC(C)=O (stereo not given)" labelvalue=0
molecule=CCCCCCCCCCCCCCCCCC[N+](C)(C)Cc1ccccc1 labelvalue=1

###

- experimentalProtocol: ATG_XTT_Cytotoxicity: Cytotoxicity Assessment in the Attagene TRANS-FACTORIAL HepG2 Assay (AID 2283584)
Records with an inconclusive call do not appear. Calls of active or inactive are those of the source. How the source made its calls: active means hit-call score of the fitted dose curve at least 0.9, where 1 is the maximum; inconclusive means response in the unintended direction; inactive means score below 0.9.
Labels: active, inactive

inputsmiles=O=C1OC2(c3ccccc31)c1cc(I)c(O)c(I)c1Oc1c2cc(I)c(O)c1I labelvalue=inactive
inputsmiles=O=C(c1ccccc1)c1ccccc1 labelvalue=inactive
inputsmiles=Cc1cc(Cc2cc(C)cc(C(C)(C)C)c2O)c(O)c(C(C)(C)C)c1 labelvalue=active
inputsmiles=Cc1cc(=O)oc2cc(O)ccc12 labelvalue=inactive
inputsmiles=NC(=NCCCCCCN=C(N)/N=C(\N)Nc1ccc(Cl)cc1)/N=C(\N)Nc1ccc(Cl)cc1 labelvalue=active
inputsmiles=COc1ccccc1NC(=O)c1cc2ccccc2cc1O labelvalue=inactive
inputsmiles=CCN(CC)CC labelvalue=inactive
inputsmiles=Cc1ccc(C)c(S(=O)(=O)O)c1 labelvalue=inactive
inputsmiles=CCC(=O)O labelvalue=inactive
inputsmiles=CCCCCCOC(=O)c1ccc(O)cc1 labelvalue=active
inputsmiles=C[C@]12CC[C@@H]3c4ccc(O)cc4CC[C@H]3[C@@H]1C[C@@H](O)[C@@H]2O labelvalue=inactive
inputsmiles=CCCCCCCCCCCC labelvalue=active
inputsmiles=Nc1ccc(O)c(C(=O)O)c1 labelvalue=inactive

###

- experimentalProtocol: CCTE_Shafer_MEA_dev_bursting_electrodes_number: CCTE's Neural Network Formation Assay for Number of Bursting Electrodes, Shafer Lab (AID 2284043)
Results filed as inconclusive are left out. Active and inactive are the calls of the source. The calls were made as follows: active = hit-call score of the fitted dose curve at least 0.9, where 1 is the maximum; inconclusive = response in the unintended direction; inactive = score below 0.9.
Labels: active, inactive

molecule=CN(C)CCOC(c1ccccc1)c1ccccc1 labelvalue=active
molecule=CC(C)c1c(C(=O)Nc2ccccc2)c(-c2ccccc2)c(-c2ccc(F)cc2)n1CC[C@@H](O)C[C@@H](O)CC(=O)O labelvalue=active
molecule=O=C(C=C(O)C(F)(F)F)C(F)(F)F labelvalue=inactive
molecule=CN(CCO)S(=O)(=O)C(F)(F)C(F)(F)C(F)(F)C(F)(F)C(F)(F)C(F)(F)C(F)(F)C(F)(F)F labelvalue=inactive
molecule="Nc1ccn([C@@H]2O[C@H](CO)[C@@H](O)C2O)c(=O)n1 (stereo partly drawn)" labelvalue=active
molecule=O=P(O)(O)CCC(F)(F)C(F)(F)C(F)(F)C(F)(F)C(F)(F)C(F)(F)C(F)(F)C(F)(F)F labelvalue=active
molecule=O=C(OC(=O)C(F)(F)C(F)(F)F)C(F)(F)C(F)(F)F labelvalue=inactive
molecule=O=C(F)C(F)(F)C(F)(F)C(F)(F)C(=O)F labelvalue=inactive

###

- experimentalProtocol: ATG_BRE_CIS: Attagene CIS-FACTORIAL HepG2 Assay for human Bone Morphogenetic Protein (BMP) Response Element (BRE) (AID 2282933)
- testContext: HepG2 BMP response element reporter, Attagene transcription factor profiling; actives raise or lower the signal
Calls of active or inactive are those of the source. How the source made its calls: active means hit-call score of the fitted dose curve at least 0.9, where 1 is the maximum; inactive means score below 0.9.
propertyName: AC50

compound=CC(C)(C)c1ccc(CCC=O)cc1 result=inactive
compound=Cc1cc(C(=C2C=CC(=Nc3ccc(S(=O)(=O)O)cc3)C=C2)c2ccc(Nc3ccc(S(=O)(=O)O)cc3)cc2)cc(S(=O)(=O)O)c1N result=inactive
compound=O=C(O)CCC(F)(F)C(F)(F)C(F)(F)C(F)(F)C(F)(F)F result=inactive
compound="C=CC(C)(CCC=C(C)C)OC(C)=O (stereo not drawn)" result=inactive
compound=O=C1c2ccc(O)c(O)c2C(=O)c2c(O)ccc(O)c21 result=inactive
compound=C=C(c1ccc(C(=O)O)cc1)c1cc2c(cc1C)C(C)(C)CCC2(C)C result=inactive
compound=Cn1sccc1=O result="34.7 µM (active)"
compound=CCCC=O result=inactive
compound=O=C(c1cc(O)c(O)c(O)c1)c1ccc(O)c(O)c1O result="4.01 µM (active)"
compound=CCOC(C)=O result=inactive
compound=CC[N+](CC)(CC)Cc1ccccc1 result=inactive
compound=FC(F)(F)C(F)(F)C(F)(F)C(F)(F)I result=inactive
compound=CC(C)C=O result=inactive

###

- target: human Retinoid X Receptor beta (RXRb), RXRB (gene 6257)
- experimentalProtocol: ATG_RXRb_TRANS: Attagene TRANS-FACTORIAL HepG2 Assay for human Retinoid X Receptor beta (RXRb) (AID 2283013)
Inconclusive results are not listed. Active and inactive are the calls of the source. The calls were made as follows: active = hit-call score of the fitted dose curve at least 0.9, where 1 is the maximum; inconclusive = response in the unintended direction; inactive = score below 0.9.
propertyName: AC50

inputsmiles=c1cc[nH]c1 target="human Retinoid X Receptor beta (RXRb), RXRB (gene 6257)" result=inactive
inputsmiles=Cc1ccc(N=Nc2c(O)ccc3ccccc23)c(C)c1 target="human Retinoid X Receptor beta (RXRb), RXRB (gene 6257)" result=inactive
inputsmiles=CNNCc1ccc(C(=O)NC(C)C)cc1 target="human Retinoid X Receptor beta (RXRb), RXRB (gene 6257)" result=inactive
inputsmiles=CCOC(OCC)C(=O)c1ccccc1 target="human Retinoid X Receptor beta (RXRb), RXRB (gene 6257)" result=inactive
inputsmiles=Cc1ccc(C(=O)c2ccccc2)cc1 target="human Retinoid X Receptor beta (RXRb), RXRB (gene 6257)" result="75.9 µM (active)"
inputsmiles=CC(C)[C@@H]1CC[C@@H](C)C[C@H]1O target="human Retinoid X Receptor beta (RXRb), RXRB (gene 6257)" result=inactive
inputsmiles=C[C@]12CC[C@@H]3c4ccc(O)cc4CC[C@H]3[C@@H]1CC[C@@H]2OC(=O)CCC1CCCC1 target="human Retinoid X Receptor beta (RXRb), RXRB (gene 6257)" result="169 µM (active)"
inputsmiles=O=S(=O)(O)C(F)(F)C(F)(F)C(F)(F)C(F)(F)C(F)(F)C(F)(F)C(F)(F)C(F)(F)C(F)(F)C(F)(F)F target="human Retinoid X Receptor beta (RXRb), RXRB (gene 6257)" result=inactive
inputsmiles=CC(=O)CC(C)C target="human Retinoid X Receptor beta (RXRb), RXRB (gene 6257)" result=inactive
inputsmiles=CCOC(=O)CN[C@@H](C(=O)N1CC[C@H]1C(=O)NCc1ccc(/C(N)=N/O)cc1)C1CCCCC1 target="human Retinoid X Receptor beta (RXRb), RXRB (gene 6257)" result="1.42 µM (active)"
inputsmiles=CCO[Si](C)(C)OCC target="human Retinoid X Receptor beta (RXRb), RXRB (gene 6257)" result=inactive
inputsmiles=CC[N+](CC)(CC)Cc1ccccc1 target="human Retinoid X Receptor beta (RXRb), RXRB (gene 6257)" result=inactive

###

- Read-out: ABC Transporter (ABCB11), ABCB11 (gene 8647)
- experimentalProtocol: LTEA_HepaRG_ABCB11: Life Technologies and Expression Analysis (LTEA) Assay for ABC Transporter (ABCB11) using HepaRG (AID 2283463)
- testContext: mRNA level, 48 h; actives raise or lower the signal
Activity calls are given as the source filed them. The calls were made as follows: active = hit-call score of the fitted dose curve at least 0.9, where 1 is the maximum; inactive = score below 0.9.
Labels: t for active, f for inactive

compound="CCC(C)c1ccccc1O (stereo unspecified)" labelvalue=f
compound=O=C1NS(=O)(=O)c2ccccc21 labelvalue=f
compound=CN(C)CCOC(c1ccccc1)c1ccccc1 labelvalue=f
compound=CCCCCCCCCCCCCCC labelvalue=f
compound=CN(Cc1cnc2nc(N)nc(N)c2n1)c1ccc(C(=O)N[C@@H](CCC(=O)O)C(=O)O)cc1 labelvalue=t
compound=O=C(CCCN1CCC(O)(c2ccc(Cl)cc2)CC1)c1ccc(F)cc1 labelvalue=t

###

- experimentalProtocol: BSK_3C_VCAM1: BioMAP Diversity Plus: 3C Assay for Vascular cell adhesion molecule 1 (VCAM1) Biomarker Activity (AID 2282999)
- testContext: BioMAP 3C HUVEC, VCAM1 ELISA, cytokine-stimulated; actives raise or lower the signal
The source made the active and inactive calls. The calls were made as follows: active = hit-call score of the fitted dose curve at least 0.9, where 1 is the maximum; inactive = score below 0.9.
propertyName: AC50

molecule=O=C1OC2(c3ccccc31)c1cc(I)c(O)c(I)c1Oc1c2cc(I)c(O)c1I result="12 µM (active)"
molecule="CCCCC(CC)C(=O)OCCOCCOCCOCCOC(=O)C(CC)CCCC (centres undefined)" result=inactive
molecule=COC1=CC(=O)C[C@@H](C)[C@]12Oc1c(Cl)c(OC)cc(OC)c1C2=O result=inactive
molecule=Oc1cc2ccccc2cc1O result=inactive
molecule=CC[N+](CC)(CC)Cc1ccccc1 result=inactive
molecule=CC(C)(C)c1ccc(O)c(O)c1 result="20 µM (active)"
molecule=CC(=O)Nc1ccc(O)cc1 result=inactive
molecule=OCCN1CN(CCO)CN(CCO)C1 result="32.8 µM (active)"
molecule=O=C1NS(=O)(=O)c2ccccc21 result=inactive
molecule=OCC(F)(F)C(F)(F)C(F)(F)C(F)(F)C(F)(F)C(F)(F)C(F)(F)C(F)(F)C(F)(F)C(F)(F)C(F)(F)F result=inactive
molecule=CCCCCCCCCCCCCCC result=inactive
molecule=O=S(=O)(O)C(F)(F)C(F)(F)C(F)(F)C(F)(F)C(F)(F)C(F)(F)C(F)(F)C(F)(F)C(F)(F)C(F)(F)F result=inactive
molecule=O=C(NO)c1ccccc1 result=inactive
molecule=CCCCCCCCCCCCOS(=O)(=O)O result=inactive
